// provenance: PubChem BioAssay (NCI)

- Tested on: HT29 colon
- Protocol Description: NCI-60 one-dose screen, 48 h (100 = growth as untreated, 0 = no growth, -100 = all killed)
- Measurement Conditions: 10 µM unless noted
This is part of a sample that, as a whole, favours compounds with a hit. Of some 83,000 tested, about 20% had one in any assay. Activity calls are given as the source filed them. Rule for the calls: active = growth percent below 10; inactive = the rest.
Hi there, I'd appreciate the recorded growth for every entry that follows.

Example results:
N#Cc1c(N)n(CCNC(=O)c2ccccc2)c2nc3ccccc3nc12 : 104% (inactive)
COc1ccc(-n2nc(C)c3c(Nc4ccc(NC(=O)Nc5cccc(C(F)(F)F)c5)cc4)ncnc32)cc1 : 1.63% (active)
O=C1c2ccccc2C(=O)c2c(N=Nc3[nH]c(=S)[nH]c3O)cccc21 : 9.93% (active)
COC(=O)c1ccc(NC(=O)c2ccc(-c3cccc([N+](=O)[O-])c3)o2)cc1 : 103% (inactive)
Cn1cc(-c2nonc2-c2c[nH]c3ccccc23)c2cccnc21 : 12.4% (inactive)

Dear reader, for each entry below, please note its growth.
1. COc1cccc(C2=NN3C(C2)c2cc(Br)cc(OC)c2OC32CCN(Cc3ccccc3)CC2)c1 (stereo not given)
2. O=C1CC[C@H](c2ccc(O)c3c2C(=O)[C@@H]2O[C@@H]2C3=O)c2cccc(O)c21
3. COc1ccc(-c2nnc(SCC(=O)c3ccc(Cl)cc3)o2)cc1
4. FC(F)(F)c1ccc(-c2cn3nc(-c4c[nH]c5ccc(Br)cc45)sc3n2)cc1

### Response
1: 108% (inactive); 2: -17.2% (active); 3: 96% (inactive); 4: 97.4% (inactive)

Result for O=C(CCCCC(=O)N/N=C\c1ccccc1O)N/N=C\c1ccccc1O , tested on HT29 colon, growth: 69.1% (inactive)
